- TEST CONTEXT: in isopropanol, 288.15 K

SMILES TEXT	solubility (mole fraction)
Clc1cccnc1Cl	0.0532

---

- TEST CONTEXT: in ethanol, 308.15 K
OBSERVATION TYPE: solubility (mole fraction)

SMILES TEXT	MEASURED VALUE
Clc1cccnc1Cl	0.145

---

- TEST CONTEXT: in n-butanol, 303.15 K
OBSERVATION TYPE: solubility (mole fraction)

SMILES TEXT	MEASURED VALUE
Clc1cccnc1Cl	0.155

---

- TEST CONTEXT: in 1,4-dioxane, 288.15 K
OBSERVATION TYPE: solubility (mole fraction)

SMILES TEXT	OBSERVATION TYPE	MEASURED VALUE
Clc1cccnc1Cl	solubility (mole fraction)	0.241
